test system: T1, ZFP SBS#1375 (synthetic)
T1 chain: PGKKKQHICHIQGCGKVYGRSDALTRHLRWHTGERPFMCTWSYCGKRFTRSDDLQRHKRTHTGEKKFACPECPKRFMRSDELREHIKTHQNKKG
assay text: EMSA
condition parameters: tags: MBP fusion
pKd: −log10 of the molar value.

binder: CCGGCGGTG (dsDNA) DNA 1: CCGGCGGTG DNA 2: CACCGCCGG
pKd: 11.10
